# test_system: Carbonic anhydrase 9 (Homo sapiens)
parameter: pKi
Lab note — pKi values are minus log10 of concentrations in M.

See these solved cases before continuing.
NS(=O)(=O)c1ccc(-n2cc(-c3ccccc3)nn2)cc1 7.59
NS(=O)(=O)c1c(F)c(F)c(-n2cc(CCCCCl)nn2)c(F)c1F 8.35
NS(=O)(=O)c1ccc(-n2cc(CCBr)nn2)cc1 8.16

Moving on to the next molecule.
Query :: Fill in the blank: the reported pKi of NCc1cn(-c2ccc(S(N)(=O)=O)cc2)nn1 is ____.
Result :: 7.92

* * *

# test_system: UniProt O43570
# Sequence (O43570 whole entry): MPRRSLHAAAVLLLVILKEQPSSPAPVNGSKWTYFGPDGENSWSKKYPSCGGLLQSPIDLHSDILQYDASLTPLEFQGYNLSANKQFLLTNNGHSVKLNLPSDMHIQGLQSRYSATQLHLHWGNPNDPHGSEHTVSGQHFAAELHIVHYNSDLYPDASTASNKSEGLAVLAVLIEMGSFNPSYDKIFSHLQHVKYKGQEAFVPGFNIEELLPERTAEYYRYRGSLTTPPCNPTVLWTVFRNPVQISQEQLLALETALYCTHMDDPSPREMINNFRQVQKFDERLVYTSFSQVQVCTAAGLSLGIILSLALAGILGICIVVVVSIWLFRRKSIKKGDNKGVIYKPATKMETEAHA
parameter: Ki
Answer as a quantity: numeral, then unit.

Query :: Observed Ki on UniProt O43570 for NS(=O)(=O)c1ccc(-n2cc(-c3ccccc3)nn2)cc1 , please.
Result :: 6 nM
